B1: CPEB3 Ribozyme (parent)
chain: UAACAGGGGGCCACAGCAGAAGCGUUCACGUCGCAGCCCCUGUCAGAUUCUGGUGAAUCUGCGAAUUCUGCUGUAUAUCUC

- Variants of: B1
- method-description: self-cleavage, relative activity (ratio to wild type); higher = more cleavage; in vitro, sequencing
Cut-off 0.4 on self-cleavage, inclusive. At or above means Y; below means N.

variant-id	answer-label
A3G G73A	Y
A5U A18U	N
A18C A28U	N
A28U C50U	Y
C32U U69A	N
U43G C62G	Y
C44A U78A	Y
A45C A56C	Y
U31G C68A	N
G8U C71G	N
C14G G61A	Y
A20G G24U	N
A13U G63A	Y
C12G C27A	N
C37A U41A	N
G46A U78C	N
C17G U41A	N
C38G U80C	Y
A2U U80C	Y
G19U U49C	N
U41C	Y
C37G A45G	Y
